organism: Rattus norvegicus; experiment: Open TG-GATES - Regimen: Daily Repeat; assay type: toxicity, organism-based, Sprague-Dawley; design: regimen Daily Repeat, gender Male, age 6 weeks; details: in vivo, po, 100 mg/kg, […], tissue Blood, route gavage, dose level Low, time 14 day

{"columns": ["COMPOUND", "READOUT_UNITS", "Fbg"],
 "data": [
  ["CCOc1ccc(NC(C)=O)cc1 [PHENACETIN]", "mg/dL", 292.4],
  ["Cc1nnc2n1-c1ccc(Cl)cc1C(c1ccccc1Cl)=NC2 [TRIAZOLAM]", "mg/dL", 253.2],
  ["CNC(=C[N+](=O)[O-])NCCSCc1ccc(CN(C)C)o1 [RANITIDINE]", "mg/dL", 243.8],
  ["CN/C(=N/CCSCc1nc[nH]c1C)NC#N [CIMETIDINE]", "mg/dL", 219.2],
  ["COC(=O)C1=C(C)NC(C)=C(C(=O)OC)C1c1ccccc1[N+](=O)[O-] [NIFEDIPINE]", "mg/dL", 260.4],
  ["O=C(OC[C@H]1O[C@@H](OC(=O)c2cc(O)c(O)c(OC(=O)c3cc(O)c(O)c(O)c3)c2)[C@H](OC(=O)c2cc(O)c(O)c(OC(=O)c3cc(O)c(O)c(O)c3)c2)[C@@H](OC(=O)c2cc(O)c(O)c(OC(=O)c3cc(O)c(O)c(O)c3)c2)[C@@H]1OC(=O)c1cc(O)c(O)c(OC(=O)c2cc(O)c(O)c(O)c2)c1)c1cc(O)c(O)c(OC(=O)c2cc(O)c(O)c(O)c2)c1 [TANNIC ACID]", "mg/dL", 261]
]}

---

species on record: Rattus norvegicus; assay: Open TG-GATES - Regimen: Single; format: toxicity, organism-based, Sprague-Dawley; design: regimen Single, gender Male, age 6 weeks; details: in vivo, po, 1000 mg/kg, 6 h, tissue Plasma, route gavage, dose level High
# Na annotations

{"columns": ["COMPOUND", "Na, meq/L"],
 "data": [
  ["O=C(OC[C@H]1O[C@@H](OC(=O)c2cc(O)c(O)c(OC(=O)c3cc(O)c(O)c(O)c3)c2)[C@H](OC(=O)c2cc(O)c(O)c(OC(=O)c3cc(O)c(O)c(O)c3)c2)[C@@H](OC(=O)c2cc(O)c(O)c(OC(=O)c3cc(O)c(O)c(O)c3)c2)[C@@H]1OC(=O)c1cc(O)c(O)c(OC(=O)c2cc(O)c(O)c(O)c2)c1)c1cc(O)c(O)c(OC(=O)c2cc(O)c(O)c(O)c2)c1 [TANNIC ACID]", 138.8],
  ["COC(=O)C1=C(C)NC(C)=C(C(=O)OC)C1c1ccccc1[N+](=O)[O-] [NIFEDIPINE]", 136.4],
  ["Cc1nnc2n1-c1ccc(Cl)cc1C(c1ccccc1Cl)=NC2 [TRIAZOLAM]", 141.6],
  ["CN/C(=N/CCSCc1nc[nH]c1C)NC#N [CIMETIDINE]", 142.4],
  ["CNC(=C[N+](=O)[O-])NCCSCc1ccc(CN(C)C)o1 [RANITIDINE]", 141]
]}

---

Measured Mono, listed per entry for reference.
organism: Rattus norvegicus; assay: Open TG-GATES - Regimen: Single; type: toxicity, organism-based, Sprague-Dawley; set-up: regimen Single, gender Male, age 6 weeks; conditions: in vivo, po, 300 mg/kg, 6 h, tissue Blood, route gavage, dose level Middle

{"columns": ["COMPOUND", "Mono / %"],
 "data": [
  ["O=C(OC[C@H]1O[C@@H](OC(=O)c2cc(O)c(O)c(OC(=O)c3cc(O)c(O)c(O)c3)c2)[C@H](OC(=O)c2cc(O)c(O)c(OC(=O)c3cc(O)c(O)c(O)c3)c2)[C@@H](OC(=O)c2cc(O)c(O)c(OC(=O)c3cc(O)c(O)c(O)c3)c2)[C@@H]1OC(=O)c1cc(O)c(O)c(OC(=O)c2cc(O)c(O)c(O)c2)c1)c1cc(O)c(O)c(OC(=O)c2cc(O)c(O)c(O)c2)c1 [TANNIC ACID]", 8.6],
  ["CN/C(=N/CCSCc1nc[nH]c1C)NC#N [CIMETIDINE]", 3.4],
  ["Cc1nnc2n1-c1ccc(Cl)cc1C(c1ccccc1Cl)=NC2 [TRIAZOLAM]", 2.4],
  ["COC(=O)C1=C(C)NC(C)=C(C(=O)OC)C1c1ccccc1[N+](=O)[O-] [NIFEDIPINE]", 3.8],
  ["CNC(=C[N+](=O)[O-])NCCSCc1ccc(CN(C)C)o1 [RANITIDINE]", 2.4]
]}
